System: K4 kissing-loop RNA reporter;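 also: bound reporter read as fluorescence of individual clusters on recovered sequencing chips by microscopy, with normalized cluster intensities fitted with a binding model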
Test: apparent KD of K4 kissing-loop reporter; higher = weaker reporter binding
Conditions: Eterna round: R107; input ligand: arginine 13.2 mM
Binary classification by apparent KD of K4 kissing-loop reporter, with 300 nM as an inclusive lower bound for 1 (yes); all other cases are 0 (no).

Hi team, for CGUUUAUAGCAGGAUACCAGUACCCAUUAUGUACGUUUAUAGUAGAGUGAUGUUCUAAAGUACCCUUGGCAGCUUCCUGUGACCC [ExTheophylB.Aa] , is the recorded apparent KD of K4 kissing-loop reporter at or above 300 nM?
0 (no)

What do you get for GCACGUACCCGAAGGAGCGUGCAAGAAUCGUAGUGAUGUUACGGAGAGUGUCACGCCGUCGCACAGGUAGGUCGCGGGUACGUGC ?
0 (no)

What do we get for UGACUGGAUGGAAGGAGCGCUAAACUCCUAGUGAUGUUAGGGACACGAGACAAAGUCUUGAGGCAGGUAGGUCGCCAUCUAGUCU [FiskerMod 8 - Jieux - Same State - Arginine B] ?
0 (no)

Here is the next sequence: UGUAUGUGAUUUGAUACCAGACCAUCUUGUGAGAAAUGAGUGAUGUUUAUUUUGGUUUGGGUCCCUUGGCAGCAAAUCGCAUACU [KL-SSTheoB24]
1 (yes)

Can you check AGUGGACAUGUCUAGAGUGAUGUUCUGGAUACCAGACACGAAAGUGUCCCUUGGCAGCCGGAGUGAUGUUCUGGCGUUCACUAAA [Omei KL Theo A Exc B v7] next?
0 (no)

How about this sequence: ACUGGGUUGACGAAAGUCAACAAAAGAGAAGGAGCGCACGAAAGUGCAGGUAGGUCGCUCAUUCCAGUGAUGUUGGAUCACCAGA [#SwitchBubble 18 #K4Late]
1 (yes)

Now the same for UCCUGCAAUCGACCACGAAAGUGGAUCGAUACCAGAGUCGAAAGACUCCCUUGGCAGCGAGUGAUGUUCGAAGCAGGUAAAUAAA [#SwitchBubble 22 #K4Late]
1 (yes)

Item: GGCAUAUAAAAUUGCCUAGAGAGAAAGGAUACCAGCACCCGGCGGUGCCCUUGGCAGCCUAGCCCAGUGAUGUUGGGUCCUCUAA [Esinvege]
0 (no)

What do you have for UCCGUUGCGGCGGCCGCCACUGACUUAUUGAUUAGGUUGCCAGUGAUGUUGGCCACCGGUCAAUACAGGACCGGGCCAUAGCGGG [Retive] ?
0 (no)

Note, next up: CCAUCGCUAUUCGAUACCAGCUCCUUAGUGAUGUUAAGGUUUUACCCACUGUAGGUGGGAAGCCCUUGGCAGCGAAUAGUGAUGG [Theophylline B K4 28]
1 (yes)

// repeat for AGAUCUGUAACAGAUACCAGAGGACGAUGAUCGGAUAGUGAUGUUAUCUGUCAGUCGUCGCUCCCUUGGCAGCUGUUACAGAUCA [Omei KL Theo B SS B v1] and report
0 (no)

Can you check AAACAUUGGUCUGAUACCAGCUGAUCGGAAACGAUCUUGCUGGAGUGAUGUUCCAAGUAAAGCCCUUGGCAGCAGACCGAUGAAA [MAT - Same State Theophlline B - Mod of Eli - D19] next?
0 (no)

Now consider CCAAACAGUUACGAUACCAGUCUAAUAUAUUUGAUCAAAACCCUCGCCGAGUGAUGUUCGGACCCUUGGCAGCGUCUGGGACAGG [zzbtmullin] .
1 (yes)

Please do the same for GGUGAUGAGCACGAUACCAGCCUCGGAGCCAGUGAUGUUGGCCCAAUUUAAAAUAAGAUAGGCCCUUGGCAGCGUGACGAUGGCU [Rainle] as well.
1 (yes)

Consider next the sequence CCUGUGUGUGAAGGAUAUAUUUCGCAUUAAAACUAGUGAUGUUGGUAAAUGGCACAAUCCGUAGCAAUAGAAGGUCACUCCGGAA [theeternabot_sameState_KL_FMN_B_22] in the same way.
1 (yes)

Entry to check: CCAUCGCUAUUCGAUACCAGUCAAAAUAAAAUAAUAAAUCUGCAAAGGAGUGAUGUUCCAGACCCUUGGCAGCGAAUAGUGAUGG [Theophylline B K4 2]
1 (yes)

How about this sequence: UGGAGUUGACGAAAAGUCAACUCCUGAGAUACCAGUGACGAAAGUCACCCUUGGCAGCUCACUGCCAGUGAUGUUGGAAGAUAAA [whbob_SS_Theo_A_w46]
0 (no)

// next record AGACUACCACACUGUCAAUAGACAGUGAGCUAGGAUAUGCUGAUAAGCAGAAGGAGUGAUGUUCCUUGGUAGUCAAUAAAAUAAU [FmnAX 13 G29+U67]
0 (no)

Now give it for AUUAAUUUCAGAGGAUAUGCUUAAUUGAUUUAUUAUUAUCUAUUAUGCAGUGAUGUUGCAUAUUUUGCAGAAGGCUGAUUUAUAA [JR_SSFMNB_Sub018] too.
0 (no)

Okay, and GGGUUUGACGGAGGAUAUGCACUGAGGAGGAGAAUAUAGUGAUGUUAUAUAAGAGGAAGGAGAAGAGUAGAAGGCCGUUGGGUUU [SSFMNB.L] ?
0 (no)

Would you mind doing GGAUCCACCAGUGAUGUUGGAGAAAACUCGAAGGAUAUGACGAAAGUCAGAAGGUUGUAGACUGGACAAAGUCCGGUCGGAUCCA [FmnA 23 G30+U56] as well?
1 (yes)

What would you report for UUUGGAGUGGGAGGAUAUCCUAAUAUGGGUGAUGUUAGCGAUGUUGAAGGUGUAGUGAUGUUAUGCGGAGAAGGCCCAGUGUAGA [BDazzled - #18 - Exc. FMN B] ?
0 (no)

Now consider GUUGAUCAUGGAAGGAGCGCCCAUUGUCGACACGAGUGAUGUUCGUGUCGUUGAUUACGAGGGCAGGUAGGUCGCCGUGUGCUUU [Rabele] and answer again.
0 (no)

Quick one: UGACUGGACUGAAGGAGCGGGCGAGACAAAGUCUCGAACUCGUAGUGAUGUUACGAAAUAACCCAGGUAGGUCGCAGUCUAGUCU
0 (no)
